Listed here: compounds with reported pIC50 for Human cytomegalovirus DNA polymerase (Human cytomegalovirus, UniProt P08546).
Scale: pIC50 equals -log10([C]), with [C] in mol/L.

>>> print(df.to_string())
                                   compound  data_value
0  COc1nc(NC(=O)C2CCc3cc(Cl)ccc32)ccc1C[C@H]1COC(=O)N1 (stereo partly drawn) [Compound 17]        7.64
1  COc1nc(N2CCN(c3ccc(C#N)c(F)c3)C2=O)ccc1C[C@H]1COC(=O)N1 [Compound 11]        7.52
2  COc1nc(NC(=O)N2Cc3ccc(Cl)cc3C2)ccc1C[C@H]1COC(=O)N1 [Compound 12]        5.42
3  COc1nc(NC(=O)Cc2ccc(Cl)cc2CO)ccc1C[C@H]1COC(=O)N1 [Compound 3]        7.92

Using Human cytomegalovirus DNA polymerase (Human cytomegalovirus, UniProt P08546) as the test system, report measured pIC50 of COc1nc(NC(=O)Cc2ccc(C#N)cc2F)ccc1C[C@H]1COC(=O)N1 [Compound 15] . 8.12

Using Human cytomegalovirus DNA polymerase (Human cytomegalovirus, UniProt P08546) as the test system, report measured pIC50 of COCc1cc(Cl)ccc1CC(=O)Nc1ccc(C[C@H]2COC(=O)N2)c(OC)n1 [Compound 5] . 7.92

* * *

Listed here: compounds with reported pIC50 for Human cytomegalovirus DNA polymerase (Human cytomegalovirus, UniProt P08546).
Scale: pIC50 equals -log10([C]), with [C] in mol/L.

In [3]: df
Out[3]:
                                   compound                          target_or_system  data_value
0  COc1nc(NC(=O)C2CCc3cc(Cl)ccc3O2)ccc1C[C@H]1COC(=O)N1 (stereo partly shown)  Human cytomegalovirus DNA polymerase (Human cytomegalovirus, UniProt P08546)        8.85
1  COc1nc(N2CCN(Cc3ccc(C#N)cc3)C2=O)ccc1C[C@H]1COC(=O)N1  Human cytomegalovirus DNA polymerase (Human cytomegalovirus, UniProt P08546)        7.46
2  COc1nc(NC(=O)Cc2ccc(Cl)cc2COCc2ccccc2)ccc1C[C@H]1COC(=O)N1  Human cytomegalovirus DNA polymerase (Human cytomegalovirus, UniProt P08546)        6.97

Proceeding to the next compound to report its pIC50.
Using Human cytomegalovirus DNA polymerase (Human cytomegalovirus, UniProt P08546) as the test system, report measured pIC50 of COc1nc(NC(=O)C2CCc3cc(C#N)ccc32)ccc1C[C@H]1COC(=O)N1 (stereo partly shown) . 8.00

* * *

Listed here: compounds with reported IC50 for Human cytomegalovirus DNA polymerase (Human cytomegalovirus).
Write the number in nM without appending the unit.

>>> print(df.to_string())
                                   compound  unit_string  data_value
0  COc1nc(NC(=O)Cc2ccc(C#N)cc2)ccc1C[C@H]1COC(=O)N1           nM          22
1  COc1nc(NC(=O)Cc2ccc(C(F)(F)F)c(F)c2)ccc1C[C@H]1COC(=O)N1           nM          11
2  COc1nc(NC(=O)C2CCc3cc(C#N)ccc3O2)ccc1C[C@H]1COC(=O)N1 (stereo partly shown)           nM         0.4

Proceeding to the next compound to report its IC50.
Using Human cytomegalovirus DNA polymerase (Human cytomegalovirus) as the test system, report measured IC50 of COCc1cc(C#N)ccc1CC(=O)Nc1ccc(C[C@H]2COC(=O)N2)c(OC)n1 . 9
